Target: T1, recombinant human IGSF11 (VSIG3) extracellular domain (ECD) (human, UniProt Q5DX21 23-241, biotinylated where captured on streptavidin)
T1 construct: also called biotinylated recombinant ECD-IGSF11; IGSF11 (ECD domain)
T1 sequence: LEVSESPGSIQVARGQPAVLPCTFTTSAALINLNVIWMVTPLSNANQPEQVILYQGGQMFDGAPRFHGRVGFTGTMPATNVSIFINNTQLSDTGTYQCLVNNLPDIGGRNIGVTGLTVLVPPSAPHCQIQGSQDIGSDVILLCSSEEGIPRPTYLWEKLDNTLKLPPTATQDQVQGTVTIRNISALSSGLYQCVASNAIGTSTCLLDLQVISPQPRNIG
Test: BLI, IgG1
ENDPOINT_LABEL: Kd

Provide measured Kd value, entry: A-011 (IgG1 format) (antibody, V domains shown, human IgG1 format) VH: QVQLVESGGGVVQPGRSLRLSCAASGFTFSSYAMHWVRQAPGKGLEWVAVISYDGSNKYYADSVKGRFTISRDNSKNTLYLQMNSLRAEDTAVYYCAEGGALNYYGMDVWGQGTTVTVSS VL: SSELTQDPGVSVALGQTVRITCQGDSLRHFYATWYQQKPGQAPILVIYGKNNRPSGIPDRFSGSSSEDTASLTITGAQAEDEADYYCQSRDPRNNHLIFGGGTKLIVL
10 to 20 nM

Quick one: give measured Kd for A-012 (IgG1 format) (antibody, V domains shown, human IgG1 format) VH: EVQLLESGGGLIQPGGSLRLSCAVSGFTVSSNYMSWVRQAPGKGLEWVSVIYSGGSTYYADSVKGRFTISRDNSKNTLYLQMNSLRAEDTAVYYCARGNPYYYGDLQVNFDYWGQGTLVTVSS VL: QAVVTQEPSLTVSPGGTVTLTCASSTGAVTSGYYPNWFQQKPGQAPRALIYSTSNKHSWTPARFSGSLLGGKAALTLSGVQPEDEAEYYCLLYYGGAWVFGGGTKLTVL
1 to 10 nM

Determine its reported Kd: A-006 (IgG1 format) (antibody, V domains shown, human IgG1 format; also called A-006-like ABP) VH: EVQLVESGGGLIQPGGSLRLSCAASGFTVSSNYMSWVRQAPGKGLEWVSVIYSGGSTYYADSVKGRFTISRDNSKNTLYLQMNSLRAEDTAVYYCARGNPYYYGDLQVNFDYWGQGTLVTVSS VL: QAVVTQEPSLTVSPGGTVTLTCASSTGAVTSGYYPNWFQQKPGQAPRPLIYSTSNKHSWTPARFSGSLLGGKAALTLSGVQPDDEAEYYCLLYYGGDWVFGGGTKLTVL
1 to 10 nM

Consider the binder A-026 (IgG1 format) (antibody, V domains shown, human IgG1 format) VH: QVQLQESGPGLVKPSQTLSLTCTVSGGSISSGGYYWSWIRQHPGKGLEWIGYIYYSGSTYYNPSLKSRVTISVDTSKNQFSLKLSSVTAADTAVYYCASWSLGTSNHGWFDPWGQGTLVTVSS VL: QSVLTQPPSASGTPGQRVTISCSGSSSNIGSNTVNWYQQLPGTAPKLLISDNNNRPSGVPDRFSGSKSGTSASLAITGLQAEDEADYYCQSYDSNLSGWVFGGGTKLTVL . State its measured Kd.
20 to 30 nM
